# Test system: B16
# protocol.summary: Effect on the survival of mouse B16 melanoma cells was determined at a dose of 10 ug/mL in vitro
# Type: functional
# experimental.parameters: read-out: Survival
Listed next: entries and their corresponding viability at 10 µg/mL.
Entry rule: numbers only, all in %.

Cc1c(N)nc(C(CC(N)=O)NCC(N)C(N)=O)nc1C(=O)NC(C(=O)NC(C)C(O)C(C)C(=O)NC(C(=O)NCCc1nc(-c2nc(C(=O)NCCC[S+](C)CC(=O)N3CCOCC3)cs2)cs1)C(C)O)C(O[C@@H]1O[C@@H](CO)[C@@H](O)[C@@H](O)[C@@H]1O[C@H]1O[C@H](CO)[C@@H](O)[C@@H](OC(N)=O)[C@@H]1O)c1c[nH]cn1 (some centres not stated) : 51

Consider now this further molecule.
Challenge: Quickly give me recorded viability at 10 µg/mL for Cc1c(N)nc(C(CC(N)=O)NCC(N)C(N)=O)nc1C(=O)NC(C(=O)NC(C)C(O)C(C)C(=O)NC(C(=O)NCCc1nc(-c2nc(C(=O)NCCC[S+](C)CC(=O)Nc3ccc([N+](=O)[O-])cc3)cs2)cs1)C(C)O)C(O[C@@H]1O[C@@H](CO)[C@@H](O)[C@@H](O)[C@@H]1O[C@H]1O[C@H](CO)[C@@H](O)[C@@H](OC(N)=O)[C@@H]1O)c1c[nH]cn1 (some centres not stated)
Response given: 46
